Tested on: MS2 coat protein
Assay: apparent KD of MS2 coat protein, switch ON state; designed switch direction (-1 OFF switch, 1 ON switch): 1; higher = weaker reporter binding
Conditions: FMN input: 0 or 200 uM; Eterna round: R93 (includes R88 designs)
Rule: satisfied for apparent KD of MS2 coat protein not less than 30 nM, not satisfied for anything less.

Sequence Code	Label Class
AAAAAACAUGAGGAUCACCCAUGUAACACUCAUGUAGGAUAUACAAAAAAAAAAAAAAAAGUAGAAGGACAAAAAA [Omei A variation 3]	satisfied
AAAAAACAUGAGGAUCACCCAUGUCAAAAGACGUGAGGAUAUGUACAGACUUCGGUCUGUACAGAAGGCACGUCAA [SS1 - 1043]	not satisfied
CAUCAACAUGAGGAUCACCCAUGUCAGUGAUGUCAAGGAUAUGGGAGACAUAAAAUUCUUCUAGAAGGUGAAAGAU [Orlaanar]	satisfied
AAAACACAUGAGGAUCACCCAUGUGCAAAAUUCGCAGGAUAUUUCUCAAUUAAAUGAAAGGAAGAAGGGUGAUAAA [Nob's Hobby 34 - Jieux - Same State 1]	not satisfied
AAAAAACAUGAGGAUCACCCAUGUAAUACAACGUCAGGAUAUUGAUUUUAUUAUGUAUUGCAAGAAGGGACAAAAA [Same State 1.3 (Same State 1 - Omei 2 - one GC added)]	satisfied
AAAAGACAUGAGGAUCACCCAUGUCAAGACAUAGGAGGAUAUGUCUUGAAAAAAGACUUGACAGAAGGCCUUUGUC [SS1 - 58]	not satisfied
AAAAACAUGGUGUAGGAUAUAUUAAUAGUCACAUGAGGAUCACCCAUGUUCAUAUAUAUGAACGAGUAGAAGGACGAUGAAAAAA [Mat - Same state - Malcolm Mod - D108]	satisfied
AAAUAAAUGACUAAGGAUAUAUCGAAGAAGACAUGAGGAUCACCCAUGUGAUAAUAAAAAGGGUGGUAGAAGGUAGUCAACAAAC [Mod 5 of Pariah 4 by Hyphema in Round 1]	satisfied

Exam item: decide whether the reported apparent KD of MS2 coat protein for AAGAAAGAAACGCAGGAUAUGCAAAACAAAACAUGAGGAUCACCCAUGUCUUACUUACAAACAAAGCAGAAGGGCGAAAGAAAGAA [Same State 2 B] is at least 30 nM.
not satisfied

Exam item: decide whether the reported apparent KD of MS2 coat protein for AGAAAACAUGAGGAUCACCCAUGUAGAAAUAUGGGAGGAUAUACAAAGACGAAAGUCAAAGUAGAAGGCCUAAAGA [Mat - Same State 1 - Eli mod - 33] is at least 30 nM.
not satisfied

Exam item: decide whether the reported apparent KD of MS2 coat protein for AAAAGACAUGAGGAUCACCCAUGUUAAGACGUGGGAGGAUAUGCAUGGAAAACAUGCUGUGCAGAAGGCCCGUGUC [SS1 - 23] is at least 30 nM.
not satisfied

* * *

Tested on: K4 kissing-loop RNA reporter
Assay: apparent KD of K4 kissing-loop reporter; higher = weaker reporter binding
Details: Eterna round: R107; input ligand: none
Rule: MET for apparent KD of K4 kissing-loop reporter not less than 0.3 µM, NOT MET for anything less.

Worked examples follow.
Sequence Code	Label Class
UUCAGACUACUACUAGACAGUAGUAUAUACUAGGAUAUCCAGAUAUGGAGAAGGAGUGAUGUUCCCUAGUAGUAGUGAAUUAAAU [KL-XFMN-A5]	MET
GCGAAGUGAUGUUUCGCCAAUAUUUGAUGAAAGGAUAUCUACUUGAAGAGAAGGUUCAUAUGACUCAAUACCUGACUUGGACCCG [theeternabot_sameState_KL_FMN_A_37]	NOT MET
AGAAGAUAUCAAGAUACCAGCUCCCGGCCCAAAACCCAGAUACACGAGUGAUGUUCGUUCAGCCCUUGGCAGCUUGCCUAGUUCU [theeternabot_sameState_KL_Theo_B_6]	NOT MET
UGACUACAAAGGAAAUAAUCCUAGUGAUGUUAGGAUAUGCUGAUAAGCAGAAGGAACUGAGAUCGAAAGAUCUCAAAUGUAGUCU [FmnAX 26 Mat Inspired #SwitchBubble #StaticStem #K4Early]	NOT MET
AGGUUUUGAUUAGGAUAUGCACUGACGACGAGAAUAUAGUGAUGUUAUAUAAUAGGAAUUAGUAGAGUAGAAGGGAUUGAGGUUU [SSFMNB.W]	NOT MET

Exam item: decide whether the reported apparent KD of K4 kissing-loop reporter for UGAUACCAGACUGAUACCAGCCAGUGAUGUUGGCUAAGCCGAAGAGGUGUCAUAGACACCGGCCCUUGGCAGCAGUCUGGUAUCU [#07 K4 Theophylline B Exclusion] is at least 0.3 µM.
NOT MET

Exam item: decide whether the reported apparent KD of K4 kissing-loop reporter for UCCUGCAAUCGACCACGAAAGUGGAUUGAUACCAGAGUCGAAAGACUCCCUUGGCAGCGAGUGAUGUUCGAAGCAGGUAAAUAAA is at least 0.3 µM.
MET

Exam item: decide whether the reported apparent KD of K4 kissing-loop reporter for UUUGUAUCGGGAAGGAGCGUGAAUGAUAAUGAAUAUAGUGAUGUUAUAUAUAAGAACGAAUCACAGGUAGGUCGCCCGGAUGAGU [SSArgB.N] is at least 0.3 µM.
MET

Exam item: decide whether the reported apparent KD of K4 kissing-loop reporter for UUGGGCAGUGAUGUUGGCUAGGCCACAGAUACCAGACGCAUGCACGUCCCUUGGCAGCUGCGAAAGUUAGACUUGUAAUGAUAGU [theeternabot_sameState_KL_Theo_A_45] is at least 0.3 µM.
MET

Exam item: decide whether the reported apparent KD of K4 kissing-loop reporter for AGCUCAGAGUGACUCGAUAAGAGUCACAAACGAGGACCGGUACGGCCGCCACUCGAAACAAAGAGAGUGAUGUUCUCGCUGAGCA [FiskerMod 10 - Jieux - Same State Tryptophan A] is at least 0.3 µM.
NOT MET

Exam item: decide whether the reported apparent KD of K4 kissing-loop reporter for AAGCAGUCACUCUAAGCCAUCGAAGAUGGUCGAGGACCGGUACGGCCGCCACUCGGAGUGAUGUUCCGAAGACUGCAAAAUAAAA is at least 0.3 µM.
MET

Exam item: decide whether the reported apparent KD of K4 kissing-loop reporter for CGUUUAUAGCAGGAUACCAGUGCGGAUAAGGUGCGUUAAUAGUAGAGUGAUGUUCUAAAGUACCCUUGGCAGCUUAGAGUGAGUG [#21 K4 Theophylline B Exclusion] is at least 0.3 µM.
NOT MET

* * *

Tested on: MS2 coat protein
Test: apparent KD of MS2 coat protein; higher = weaker reporter binding
Details: Eterna round: R101; input ligand: FMN 200 uM
Quantity Kind: apparent KD of MS2 coat protein
Include the unit after the number when you answer.

Solved entries:
Sequence Code	Quantity Kind	Value Reported
GUAGCAUUCUGAGGAUAUUCAUACCGGAAACGGACAUGAGGAUCACCCAUGUGGCGAAAGCCUUGGGAGAAGGCAGUAUGCUAC [#DoubleMagnetSystem - Xeonanis 25 9 - Original] (puzzle (switch architecture): Same State NG 2)	apparent KD of MS2 coat protein	9.21 nM
UAGAAGCUCACAGGAUAUCAGUAUGCGCGAUCUAACGCAUUAAUGAACUGCUGAGAAGGGUGAGACAUGAGGAUCACCCAUGUA [Enesraadi] (puzzle (switch architecture): Small Loop Same State NG 1)	apparent KD of MS2 coat protein	395 nM
AGAGCUGCUCAGAAGGAGGAUCACCCUUUCGAAAGAAAUACGGAGGCUGAAAAGCCUCCGAAAUUCUAGGAUAUGAGCAGCUCA [#SharedSequence - IExNG2: 7] (puzzle (switch architecture): Inverted Exclusion NG 2)	apparent KD of MS2 coat protein	133 nM
AGACCUGCUCAGAAGGCGGAUACGAGGCUGGAAACAGCCUCGUAAUUAAAUCUUCGAGGAUCACCCGAGGAUAUGAGCAGGUCA [#SharedSequence - IExNG2: 13] (puzzle (switch architecture): Inverted Exclusion NG 2)	apparent KD of MS2 coat protein	28.4 nM

Report apparent KD of MS2 coat protein for CCUGCACUUCAAGGAUAUCCAGUCGAAACGACUGGAGAAGGUGAGGAUCACCCAUCUAGCCUGACGAAAGUCAGGCAUGCAGGA [#SharedSequence - ExNG1-7] (puzzle (switch architecture): Exclusion NG 1) please.
101 nM

Report apparent KD of MS2 coat protein for ACAGGUCGUGAGAAGGCGGGUGGCACCGUCGAAAGACGGUGCAAUUAAAAUCUUCGAGGAUCACCCGAGGAUAUCACGACCUGA [#SharedSequence - IExNG2: 17] (puzzle (switch architecture): Inverted Exclusion NG 2) please.
28.6 nM

* * *

System: K4 kissing-loop RNA reporter;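 further: bound reporter read as fluorescence of individual clusters on recovered sequencing chips by microscopy, with normalized cluster intensities fitted with a binding model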
Test: apparent KD of K4 kissing-loop reporter; higher = weaker reporter binding
Conditions: Eterna round: R107; input ligand: tryptophan 2.4 mM
Quantity Kind: apparent KD of K4 kissing-loop reporter (nM)
Just the number please, in nM, no unit attached.

Solved entries:
Sequence Code	Target Or System	Unit Abbreviation	apparent KD of K4 kissing-loop reporter
UUUAAAUAUAGUGAUGUUAUAUAACAAUGACGAGGACCGGUACGGCCGCCACUCGAGAGAGAUAAUGGUCUAUAGAAUCUAUAGC [AstrosSSTryA#4]	K4 kissing-loop RNA reporter	nM	508
CCUAUCUCAUACGAUACCAGUGAUUAACCAGUGAUGUUGGAAUAACCAAGGAAUAUUUAUCACCCUUGGCAGCGUAUGGGAUAGG [Ex Theophylline B K4 28]	K4 kissing-loop RNA reporter	nM	69.4
CGCGUGGGUUUGAGAGGGUUUGUGCGAAGUGAGGAUAUUUAGGGAGAAAGAAGGCACUAUAAAAUAUAGUGAUGUUAUAUAAGGG [SSFMNA.K]	K4 kissing-loop RNA reporter	nM	227
AAGGUAAGUGCAUACAAAGUGAUGUUUUGUCGAGGACCGGUACGGCCGCCACUCGCCCAGUUAAGUGACCGACGUCAACGAAUAA [theeternabot_exclusion_KL_Trp_A_21]	K4 kissing-loop RNA reporter	nM	498
AAACAAGAUGCAGGAUAUACGGACCCAGUGAUGUUGGGUAGAAUUGUCCCGGCAAUCCUUGUGGCAGUAGAAGGGCAAUAAAAGA [Gexeraora]	K4 kissing-loop RNA reporter	nM	151

Here is another sequence to look at.
Report apparent KD of K4 kissing-loop reporter for GGUCUGCCGCAGUGAUGUUGCUGGCAUACACGAGGACCGGUACGGCCGCCACUCGAUGCUCCAAGAACCACCAAUCUUCGGUAUC [theeternabot_sameState_KL_Trp_A_48] please.
236

Every entry's value here was drawn from the supplement of paper PMC9170038.
